System: HOP-92
Test: NCI tumour cell line growth inhibition, 48 h
The source made the active and inactive calls. Rule as the data show it: active = GI50 up to about 1.1 µM and inactive = higher.

molecule	target-desc	GI50
COC(=O)c1ccc(Nc2nc3[nH]cnc3c(=O)[nH]2)cc1	HOP-92	> 100 µM (inactive)
N#Cc1c2ccccc2cn1-c1ccc(F)cc1	HOP-92	20.6 µM (inactive)
COc1cc2c(c3c1c(=O)c1ccccc1n3C)C=CC(C)(C)O2	HOP-92	> 100 µM (inactive)
CC(=O)N[C@@H](Cc1ccc(O)cn1)C(=O)NCc1cccc(F)c1	HOP-92	30.9 µM (inactive)
C=CC[C@@]12CCC(=O)C=C1CCCC2=O	HOP-92	> 100 µM (inactive)
CNC(=O)ON(C(C)=O)C(=O)NC [CARACEMIDE]	HOP-92	17.9 µM (inactive)
